This collection of values is drawn from PubChem BioAssay (NCI).

tested on: A549/ATCC NSCLC; assay: NCI-60 one-dose screen, 48 h; conditions: 10 µM unless noted
The panel holds about 83,000 compounds, 20% with a hit somewhere; the sample as a whole holds those more often. The source made the active and inactive calls. The calls were made as follows: active = growth percent below 10; inactive = the rest.
Your reply should match one of these outcome classes. 1 (yes) for active, 0 (no) for inactive

Asked: Test call, this molecule: CCN(CC)CCOCC[C@H]1CC[C@H]2[C@@H]3[C@H](C)Cc4cc(OS(N)(=O)=O)ccc4[C@H]3CC[C@]12C
Given back: 1 (yes)

Asked: Test call, this molecule: Cc1ccc2nc(SCC(=O)Nc3ccc(-c4nc5ccccc5s4)c(Cl)c3)[nH]c2c1
Given back: 0 (no)

Asked: Test call, this molecule: COc1ccc(Oc2ccccc2NC(=O)CNC(=O)c2cccc3ccccc23)cc1
Given back: 0 (no)

Asked: Test call, this molecule: Cc1cc(=O)[nH]c(/C(=N/Nc2ccccc2)C(=O)c2ccc(Cl)cc2)n1
Given back: 0 (no)

Asked: Test call, this molecule: Cc1cc(C)c2c(N)c3cccc(C)c3nc2n1
Given back: 1 (yes)

Asked: Test call, this molecule: COc1c(Br)cc(C(c2cc(Br)c(OC)c(Br)c2)c2ccccc2C(=O)O)cc1Br
Given back: 0 (no)

Asked: Test call, this molecule: CCCCCc1c(C)[nH]c(/C=C2\N=C(c3ccc[nH]3)C=C2Oc2ccccc2)c1C
Given back: 1 (yes)

Asked: Test call, this molecule: O=C1NC(=O)/C(=C/c2ccc(Cl)cc2Cl)N1
Given back: 0 (no)

Asked: Test call, this molecule: COc1ccc(C2=NN(C(N)=S)C(c3ccc4c(c3)OCO4)C2)cc1 (stereo not given)
Given back: 0 (no)

Asked: Test call, this molecule: COP(=O)(OC)C(c1ccccc1)(c1ccccc1)c1ccccc1
Given back: 0 (no)
